Experiment: yeast display, Sf9 membrane polyspecificity reagent, FACS + sequencing; frameworks hold sequencing errors
measure: polyreactivity (PSR sort gate)

seq=QDQLVESGGGLVQAGGSLRLSCAASGRIFYRYAMGWYRQAPGKERELVATISRSGGSTNYADSVKGRFTISRDNAKKTVYLQLNSLKPEDTAVYYCAAQYTYRFPYPGYATTHDYWGQGTQVTVSS measure="polyreactivity (PSR sort gate)" result="high polyreactivity"
seq=QVQLVESGGGLVQAGGSLRLSCAASGSIISGYAMGWYRQAPGKERELVASISSSGGRTYYAYSVKGRYTISRDNAKNTVYLPRNSLKPEDTAVYYCNVKSYTYGYLPYDYWGQGTQVTVSS measure="polyreactivity (PSR sort gate)" result="high polyreactivity"
seq=QVQLVESVGGLVQAGGSLRLSCAASGLTSGLNAMGWYRQAPGKERELVATIRTNGGSTYYADSVKGRFTISRDNAKNTVYLQMNSLKPEDTAVYYCAADSVLDRPVLYLWPWYLGDYWGQGTQVTVSS measure="polyreactivity (PSR sort gate)" result="low polyreactivity"
seq=QVQLVESGGGLVQAGGSLRLSCAASGRILPWYAMGWYRQEPGKERELVARIRSTDSSNYADSVKGRFTISRDNAKNTVYLQMNSLKPEDTAFYYCAKVQWGFPYAWLGSDYWGQGTQVTVSS measure="polyreactivity (PSR sort gate)" result="low polyreactivity"

// moving on: another record for polyreactivity (PSR sort gate)
[Q] // polyreactivity (PSR sort gate) lookup, key: "QVQLQVSGGHLVQAGGSLRLSCAASGTIYGLTSMGWYSQAPGKEREFVAAITDGGNTNYADSVKGRFTISRDNAKNTVYLQMISLKPEDTSVYYCAFLFSDDAYFAYWGQGTQVTLSS"
[A] low polyreactivity

###

Experiment: yeast display, Sf9 membrane polyspecificity reagent, FACS + sequencing; frameworks hold sequencing errors
measure: polyreactivity (PSR sort gate)

Take a look at these entries with their results.
seq=QVQHVESGGGLVQAGGSLRLSGAASGSTFTYNTMGWYRQAPGKERELVAAITTYGGNTYYADSVKGRFTISRDNAKNTVYLQMNSLKPEDSAVYYCAARVIFGDFDYWGQGTQVTVSS result="low polyreactivity"
seq=QVQLVESGGGLVQAGGSLRLSCAASGSIFDRYAMGWYRQAPGKERELVAAITTSGGSTSYADSVKGRYTISRDNAKNTVYLQMNSLIPEDTAVYYCAAGYDYVFAFLNEYDYWGQGTQVTVSS result="low polyreactivity"
seq=QVQLVESGGRLVQAGGSLRLSCAASGRIILRNAMGWYRQAPGKERELVAAISSSGGRKYYADSVKGRFTISRDNAKNTVYLQMNSLKPEDTAVYYCNARWHGSFDYWGQGTQVTVSS result="low polyreactivity"
seq=QVKRVESGGGLVQAGGSLRLSCAASGSTFYRYAMGWYRQAPGKERELVAAINGRGGRTYYADSVKGRFTISRDNAKNTVYLQMNSLKPEDTAVYYCAARGYAPDTYGYWGQGTQVTVSS result="high polyreactivity"
seq=QVQLVESGGGLVQAGGSLRLSCAASGRTFTPYAMGWYRQAPGKERELVAAIDTSGGSTYADSVKGRFTISRDNAKNTVYLQMNSLKPEDTAVYYCAATRHSRVRGGDYWGQGTQVTVSS result="low polyreactivity"

[Q] Quick one: polyreactivity (PSR sort gate) for "QVQLVESGGGLVQAGGSLRLSCAASGRTYRQNAMGWYRQAPGKEGELVAAISSSGTNTHYADSVKGRFTISRDNAKNTVYLQMTSLKPEDTAVYYCAADSWGARRKQYHENGYWGQGSQVTVSS" ?
[A] high polyreactivity
